# targetDesc: T1, recombinant human activated Factor VII (FVIIa) (human, UniProt P08709 61-212; P08709 213-466, ten glutamate residues of the Gla domain may be gamma-carboxylated)
# T1 construct: chains tethered by a disulfide bond; also called Factor VIIa; rFVIIa
# T1 sequence 1: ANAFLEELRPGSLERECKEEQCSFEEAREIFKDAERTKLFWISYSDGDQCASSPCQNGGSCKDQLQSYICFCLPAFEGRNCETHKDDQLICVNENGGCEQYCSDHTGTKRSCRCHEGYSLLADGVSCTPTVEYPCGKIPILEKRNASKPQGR
# T1 sequence 2: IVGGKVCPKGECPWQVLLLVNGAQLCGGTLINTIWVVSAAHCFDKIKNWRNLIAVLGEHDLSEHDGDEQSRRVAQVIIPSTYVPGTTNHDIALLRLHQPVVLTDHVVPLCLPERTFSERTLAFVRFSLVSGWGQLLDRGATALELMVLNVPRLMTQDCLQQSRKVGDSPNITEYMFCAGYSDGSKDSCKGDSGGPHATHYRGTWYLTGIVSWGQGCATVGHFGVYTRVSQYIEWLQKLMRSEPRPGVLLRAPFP
# assayText: BLI (Fortebio)
Recorded Kd by entry
Entry rule: numbers only, all in nM.

// worked examples, Kd included
Determine its reported Kd: VH SEQ ID NO 578 / VL SEQ ID NO 318 (antibody, IgG4, V domains shown, humanized 11F2; IgG4 S228P/kappa) VH: QVQLQESGPGLVKPSDTLSLTCAVSGYSISSDSAWSWIRQPPGKGLEWIGYIQYSGSTNYNPSLKSRVTMSVDTSKNQFSLKLSSVTALDTAVYYCARSVNYYGNSFAVGPWGQGTLVTVSS VL: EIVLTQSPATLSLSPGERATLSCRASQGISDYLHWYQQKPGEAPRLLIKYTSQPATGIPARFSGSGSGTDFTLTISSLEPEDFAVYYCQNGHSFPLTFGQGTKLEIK
17

Determine its reported Kd: VH SEQ ID NO 578 / VL SEQ ID NO 494 (antibody, IgG4, V domains shown, humanized 11F2; IgG4 S228P/kappa) VH: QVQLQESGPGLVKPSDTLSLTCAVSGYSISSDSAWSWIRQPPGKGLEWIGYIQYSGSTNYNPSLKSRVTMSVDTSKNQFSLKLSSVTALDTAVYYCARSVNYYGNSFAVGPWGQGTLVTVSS VL: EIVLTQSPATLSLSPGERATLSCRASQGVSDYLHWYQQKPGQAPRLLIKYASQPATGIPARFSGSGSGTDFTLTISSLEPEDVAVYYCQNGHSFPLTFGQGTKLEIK
28

---
Determine its reported Kd: VH SEQ ID NO 594 / VL SEQ ID NO 502 (antibody, IgG4, V domains shown, humanized 11F2; IgG4 S228P/kappa) VH: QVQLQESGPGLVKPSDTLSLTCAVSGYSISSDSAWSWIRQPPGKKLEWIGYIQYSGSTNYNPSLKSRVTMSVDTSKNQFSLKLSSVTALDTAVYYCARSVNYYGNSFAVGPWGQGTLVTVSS VL: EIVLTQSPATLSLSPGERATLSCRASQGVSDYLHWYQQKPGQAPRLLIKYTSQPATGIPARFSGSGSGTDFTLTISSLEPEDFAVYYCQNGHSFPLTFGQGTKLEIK
30

Determine its reported Kd: VH SEQ ID NO 618 / VL SEQ ID NO 382 (antibody, IgG4, V domains shown, humanized 11F2; IgG4 S228P/kappa) VH: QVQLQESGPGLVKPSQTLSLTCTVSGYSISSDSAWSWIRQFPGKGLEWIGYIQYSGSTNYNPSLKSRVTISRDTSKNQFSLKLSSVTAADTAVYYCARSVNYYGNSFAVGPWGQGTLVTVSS VL: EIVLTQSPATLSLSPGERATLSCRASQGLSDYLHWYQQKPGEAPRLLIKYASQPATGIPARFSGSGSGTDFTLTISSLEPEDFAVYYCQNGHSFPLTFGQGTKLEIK
1.1

Determine its reported Kd: VH SEQ ID NO 562 / VL SEQ ID NO 358 (antibody, IgG4, V domains shown, humanized 11F2; IgG4 S228P/kappa) VH: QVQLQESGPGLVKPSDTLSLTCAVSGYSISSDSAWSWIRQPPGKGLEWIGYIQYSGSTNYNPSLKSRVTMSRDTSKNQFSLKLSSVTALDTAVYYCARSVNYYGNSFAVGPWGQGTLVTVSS VL: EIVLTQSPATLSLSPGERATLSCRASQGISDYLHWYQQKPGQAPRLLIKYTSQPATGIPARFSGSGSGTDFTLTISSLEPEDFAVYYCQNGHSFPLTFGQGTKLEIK
0.95
